- Tested on: MOLT-4 leukemia
- test: NCI-60 one-dose screen, 48 h
- conditionNotes: 10 µM unless noted
The panel holds about 83,000 compounds, 20% with a hit somewhere; the sample as a whole holds those more often. Active and inactive are the calls of the source. Rule for the calls: active = growth percent below 10; inactive = the rest.
A correct response names exactly one class from True (active), False (inactive)

State the result this test recorded for N#Cc1nc(-c2ccccc2)oc1S(=O)(=O)NCC(c1ccc(Cl)cc1)N1CCCCC1 (centres undefined) .
True

State the result this test recorded for COC(=O)c1nc(-c2ccccc2)oc1S(=O)(=O)n1nc(C)cc1N .
False

Fill in: this test's call for CCOC(=O)c1c(-c2ccc(O)cc2)c(C#N)c2c(C#N)c(N)nn2c1N is ___
False

Query: recorded result category for Cc1ccc(CS/C(=C\c2ccc([N+](=O)[O-])cc2)C(=O)c2ccc(F)cc2)cc1 in this test
True

Could you kindly confirm the outcome this assay logged for O=C(N/N=C/C[C@@H]1[C@@H](/C=C/[C@@H](O)COc2cccc(Cl)c2)[C@H](O)C[C@@H]1O)c1ccncc1 ?
False

I would be grateful if you could indicate the recorded call for COc1cc(/C=C/CO)cc(OC)c1O[C@@H]1O[C@H](CO)[C@@H](O)[C@H](O)[C@H]1O .
False

Dear colleague, could you share the recorded outcome for COc1cc2nc3c(=O)n(-c4ccc(C#N)cc4)cnn3c(=O)c2cc1OC when you have a moment?
False

Any idea what this test logged for C=C(C)[C@@H]1CC[C@]2(C(=O)O)CC[C@]3(C)[C@H](CC[C@@H]4[C@@]5(C)C[C@@H](CC#Cc6ccc(Cl)cc6)C(=O)C(C)(C)[C@@H]5CC[C@]43C)[C@@H]12 ?
False

Called result for CC(=O)c1cnc(-c2ccccc2)nc1CBr
False

Recorded call for O=C(O)COc1ccc2c(=O)c3sc4c(=O)c5ccccc5c(=O)c4c3c(=O)c2c1 ?
False

GET /call?item= COc1cc([C@H](C)c2ccc3ccccc3c2)cc(OC)c1OC returns the recorded outcome of this test.
False

What was the test verdict on COc1ccc(-c2cc(-c3nnc(SCC(=O)Nc4ccc(C(C)=O)cc4)o3)c3ccccc3n2)cc1 ?
False

Identify the outcome logged in this assay for the compound shown: COc1ccc(C(C)c2cc(OC)c(OC)c(OC)c2)cc1 (centres undefined)
True

Hey, what did the test say about NC(=O)C(O)(c1ccccc1)c1ccccc1 ?
False

Which outcome was entered for the compound O=C(Nc1cccc(-c2cccc(F)c2)c1)C1CCN(Cc2cccc3cccnc23)CC1 in this test?
False

In this assay, the call recorded for O=CN1N=C(c2ccc3c(c2)OCO3)CC1c1cccc(Nc2ccnc3cc(C(F)(F)F)ccc23)c1 (centres undefined) was what?
False

# outcome recorded in this test, key = CCn1cc(C(=O)O)c(=O)c2cc(F)c(N3CCN(CC(=O)Nc4ccc(/C(C)=N/OC)cc4)CC3)cc21
False

Hi, sorry to bother you, what did the test record for COc1ccc(C(=O)c2cc(OC)c(OC)c(OC)c2)cc1OC(=O)C(Cl)(Cl)Cl ?
False

Call for entry C1=CC2=CC=C3C=CC=C4C(c5nc6c7ccccc7c7ccccc7c6[nH]5)=CC(=C1)C2C34 (centres undefined) :
False

---

- Test system: RXF 393 renal
- test: NCI-60 one-dose screen, 48 h
- conditionNotes: 10 µM unless noted
This is part of a sample that, as a whole, favours compounds with a hit. Of some 83,000 tested, about 20% had one in any assay. Calls of active or inactive are those of the source. How the source made its calls: active means growth percent below 10; inactive means the rest.
Select the matching outcome among active, inactive

Query: recorded result category for O=C(Nc1nccs1)c1noc2ccccc12 in this test
inactive

For this compound, state the assay outcome: COCCOCCOCc1n(Cc2ccc3ccccc3c2)c2ccccc2[n+]1Cc1ccc2ccccc2c1
inactive

# outcome recorded in this test, key = COc1ccc(OCC(=O)OC(C)C)cc1
inactive

Which result was noted for this compound in the test: Nc1c(C(=O)Nc2cccc3ccccc23)sc2nc3c(cc12)CCCCC3
inactive

Status in this test for C=C(C)[C@@H]1CC[C@]2(C(=O)OCCOCCOCC[P+](c3ccccc3)(c3ccccc3)c3ccccc3)CC[C@]3(C)[C@H](CC[C@@H]4[C@@]5(C)CC[C@H](OC(=O)C(Cl)Cl)C(C)(C)[C@@H]5CC[C@]43C)[C@@H]12 ?
active

# outcome recorded in this test, key = Oc1ccc(CNNc2ccnc3c(O)cccc23)c2cccnc12
inactive

The measured values listed here are drawn from PubChem BioAssay (NCI).
